Recorded protein stability index by entry
B1: WEE1 (parent)
chain: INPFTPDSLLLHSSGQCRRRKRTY

- Variants of: B1
- protocol-notes: protein stability index of a GFP-peptide fusion (GPS, HEK-293T) (PSI 1-6); higher = more stable;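 also: lentivirally expressed fusions sorted by FACS into six bins by GFP to DsRed ratio, PSI derived from sequencing read proportions per bin multiplied by bin number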
- details: c terminus: a fixed tail appended
Give your answer as a number; write no unit.

Consider the following illustrative entries.
| alteration | protein stability index |
| --- | --- |
| H12R | 3.59 |
| R19T | 2.78 |

Prompt: Field request: protein stability index | item: "R18H"
Completion: 3.39

Prompt: Field request: protein stability index | item: "S14T"
Completion: 3.37

Prompt: Field request: protein stability index | item: "Q16I"
Completion: 3.56

Prompt: Field request: protein stability index | item: "D7E"
Completion: 3.6

Prompt: Field request: protein stability index | item: "Q16V"
Completion: 2.97

Prompt: Field request: protein stability index | item: "T23Q"
Completion: 3.42

Prompt: Field request: protein stability index | item: "T23M"
Completion: 3.6

Prompt: Field request: protein stability index | item: "H12E"
Completion: 4.06

Prompt: Field request: protein stability index | item: "L9W"
Completion: 3.32

Reference for the values: the supplement of paper PMC10567573
